Values from PubChem BioAssay AID1259416

For each of the molecules below, state its activity change, negative = inhibition.
Assay details: T. gondii growth inhibition with IFN-gamma, primary screen, cell-based (AID 1259416);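 also: host cells are HeLa cells infected with Toxoplasma gondii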
Experimental parameters: Toxoplasma gondii growth in IFN-gamma-treated host cells; stronger effect = lower value; concentration not given here
About 2,600 (3.8%) of roughly 69,000 compounds were called active. The sample holds actives, similar compounds and a random draw of the others, so the mix is not that of the screen.
The reply should be a number in %, with the unit left off.

-- ask Please report the recorded activity change, negative = inhibition for CCc1ccc(NC(=O)c2c(O)c3cccnc3n(-c3ccccc3)c2=O)cc1 .
-- reply 86

-- ask Please answer likewise for O=C(Nc1cccc(Cl)c1)c1c(O)c2cccnc2n(-c2ccc(F)cc2)c1=O
-- reply 195

-- ask Please answer likewise for COc1c(C)cnc(CN(C)C(=O)c2cnn3cc(C)cnc23)c1C
-- reply -3.21

-- ask Please answer likewise for O=C(NCc1ccccc1F)c1c(O)c2cccnc2n(-c2cccc(F)c2)c1=O
-- reply -102

-- ask Please answer likewise for Cc1ccc(-c2ccccc2-n2cnnc2)o1
-- reply -6.57

-- ask Please answer likewise for COc1ccccc1CNC(=O)c1c(O)c2cccnc2n(-c2ccccc2)c1=O
-- reply -37.8

-- ask Please answer likewise for COC(=O)c1ccc(-c2noc(-c3c(O)c4ccccc4[nH]c3=O)n2)cc1
-- reply 21.8

-- ask Please answer likewise for CCc1cccc(NC(=O)c2c(O)c3cccnc3n(-c3cccc(F)c3)c2=O)c1
-- reply -96.6

-- ask Please answer likewise for Cc1ccccc1-c1nc2ccc(-n3cnnc3)cc2o1
-- reply -95.3

-- ask Please answer likewise for Cc1nc(SCC(=O)Nc2cccc(C(F)(F)F)c2)oc1C
-- reply 21

-- ask Please answer likewise for COc1cccc(-n2c(=O)c(C(=O)Nc3ccccc3F)c(O)c3cccnc32)c1
-- reply 40
